- System: RWP1 cells
- test-details: Effect of anti-FZD5 Fabs on proliferation of pancreatic cancer cell lines (percent growth inhibition)
- Type: cell-based, human
- test-context: Fab 10 μg/ml
test-readout: percent growth inhibition, RWP1 10 μg/ml (%)

molecule	units-of-measure	experimental-result
Fab-2928: anti-FZD5 Fab with antibody variable region Fv-2928; CDR SEQ ID NOs: 35, 36, 67, 105, 143, 175 (antibody, V domains shown) VH: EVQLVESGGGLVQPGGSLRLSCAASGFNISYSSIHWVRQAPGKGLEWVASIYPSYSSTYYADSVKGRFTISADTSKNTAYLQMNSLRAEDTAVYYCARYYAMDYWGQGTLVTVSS VL: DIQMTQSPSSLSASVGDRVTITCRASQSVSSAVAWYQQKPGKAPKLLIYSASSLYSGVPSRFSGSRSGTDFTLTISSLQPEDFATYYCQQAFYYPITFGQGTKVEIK	%	32.47

Recorded values, source patent US20210253718A1.
